The values you see were collected from the FLAb antibody collection (doi:10.7554/elife.23156).

B1: scFv; the commonest letter at each place (parent)
chain 1: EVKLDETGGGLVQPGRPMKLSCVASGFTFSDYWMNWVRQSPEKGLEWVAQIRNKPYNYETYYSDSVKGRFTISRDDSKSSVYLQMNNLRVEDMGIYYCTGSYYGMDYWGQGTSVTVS
chain 2: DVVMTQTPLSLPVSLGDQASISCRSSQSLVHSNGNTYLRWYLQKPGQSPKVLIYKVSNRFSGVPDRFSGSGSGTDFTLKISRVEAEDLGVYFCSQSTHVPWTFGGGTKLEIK

Variants of: B1
MEASUREMENT NOTES: Kd (Tite-Seq)
EXPERIMENTAL SETUP: with fluorescein; format: scFv 4-4-20, heavy + light
pKd: −log10 of the molar value.
VALUE TYPE: pKd

chain 1 T28H S30G; 8.91

[Q] Identify measured pKd corresponding to chain 1 Y102Q G109D
[A] ≤ 5.00

[Q] Identify measured pKd corresponding to chain 1 D31C W36G
[A] ≤ 5.00

[Q] Identify measured pKd corresponding to chain 1 F29H W33R
[A] ≤ 5.00
